Values from patent US11365192B2

Target: human CYP4F2 (Homo sapiens (Human), UniProt P78329)
Sequence (P78329 5-520): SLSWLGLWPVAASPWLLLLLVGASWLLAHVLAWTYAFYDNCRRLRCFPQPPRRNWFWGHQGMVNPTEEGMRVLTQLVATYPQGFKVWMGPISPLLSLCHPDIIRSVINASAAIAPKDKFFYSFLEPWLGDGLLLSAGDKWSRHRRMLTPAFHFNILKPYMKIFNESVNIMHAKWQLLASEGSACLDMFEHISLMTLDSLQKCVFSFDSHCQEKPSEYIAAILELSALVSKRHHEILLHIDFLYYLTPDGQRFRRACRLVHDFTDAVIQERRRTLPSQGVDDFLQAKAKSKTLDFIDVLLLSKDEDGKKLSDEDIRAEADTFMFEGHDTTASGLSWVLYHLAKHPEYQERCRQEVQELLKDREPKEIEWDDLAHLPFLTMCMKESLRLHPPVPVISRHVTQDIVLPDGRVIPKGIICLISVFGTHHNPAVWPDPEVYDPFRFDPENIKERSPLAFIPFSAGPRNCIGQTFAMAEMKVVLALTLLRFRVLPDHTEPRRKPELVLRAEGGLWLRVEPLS
Assay: Inhibition test against 20-HETE producing enzyme CYP4F2 (luciferine derivative, luminescence)
Format: biochemical
Settings: E. coli membrane fraction expressing human CYP4F2, 2.5 μM luciferine derivative, room temperature 60 minutes
observable: IC50 (µM)
Numbers only, in µM.

molecule | IC50 / µM
O=C(O)CCCc1ccc(CCOc2ccc(-c3ccn[nH]3)nc2)cc1 [Example 4-2] | 0.16
c1cc(-c2ccc(OCCCCCc3nnn[nH]3)cn2)[nH]n1 [Example 62-1] | 3.5
O=C(O)Cc1cccc(COc2ccc(-c3ccn[nH]3)nc2)c1 [Example 22-3] | 17
O=C(O)Cn1cc(CCCOc2ccc(-c3ccn[nH]3)nc2)nn1 [Example 35-1] | 20
CC(=O)N1CCC(CCCCCCOc2ccc(-c3ccn[nH]3)nc2)(C(=O)O)CC1 [Example 3-5] | 3

Working through the 5 molecules below one at a time, give IC50 for each.
1. O=C(O)Cc1cccc(COc2ccc(-c3cnco3)nc2)c1 [Example 40-1]
2. O=C(O)c1cnc(-c2cccc(COc3ccc(-c4ccn[nH]4)nc3)c2)nc1 [Example 22-5]
3. CS(=O)(=O)NC(=O)NCCCCOc1ccc(-c2ccn[nH]2)nc1 [Example 61-1]
4. O=C(O)c1cnn(-c2cccc(COc3ccc(-c4ccn[nH]4)nc3)c2)c1 [Example 34-3]
5. CC(C)(Oc1cccc(COc2ccc(-c3ccn[nH]3)nc2)c1)C(=O)O [Example 18-5]

Reply:
[28, 3.1, 8, 0.39, 5.2]

Working through the 8 molecules below one at a time, give IC50 for each.
1. O=C(NCCO)c1cccc(COc2ccc(-c3ccn[nH]3)nc2)c1 [Example 42-3]
2. O=C(O)CCc1cccc(CCOc2ccc(-c3ccn[nH]3)nc2)c1 [Example 1-16]
3. O=C(O)CCCCCCOc1ccc(-c2ccn[nH]2)nc1 [Example 22-20]
4. O=C(O)C12CCC(COc3cnc(-c4ccn[nH]4)c(F)c3)(CC1)CC2 [Example 1-21]
5. NS(=O)(=O)CCCC(=O)N1CCC[C@@H](COc2ccc(-c3ccn[nH]3)nc2)C1 [Example 41-6]
6. O=C(O)CCCCOc1ccc(-c2ccn[nH]2)nc1 [Example 10-1]
7. O=C(O)Cn1ncc2cc(COc3ccc(-c4ccn[nH]4)nc3)ccc21 [Example 16-1]
8. O=C(O)CCCc1ccccc1COc1ccc(-c2ccn[nH]2)nc1 [Example 1-11]

Reply:
1. 0.21
2. 1.1
3. 9.6
4. 31
5. 0.32
6. 19
7. 1.4
8. 43
